src = ChEMBL document CHEMBL1142961

- test target: Aminopeptidase N (Plasmodium falciparum FcB1/Columbia, UniProt O96935)
- Sequence (O96935 whole entry): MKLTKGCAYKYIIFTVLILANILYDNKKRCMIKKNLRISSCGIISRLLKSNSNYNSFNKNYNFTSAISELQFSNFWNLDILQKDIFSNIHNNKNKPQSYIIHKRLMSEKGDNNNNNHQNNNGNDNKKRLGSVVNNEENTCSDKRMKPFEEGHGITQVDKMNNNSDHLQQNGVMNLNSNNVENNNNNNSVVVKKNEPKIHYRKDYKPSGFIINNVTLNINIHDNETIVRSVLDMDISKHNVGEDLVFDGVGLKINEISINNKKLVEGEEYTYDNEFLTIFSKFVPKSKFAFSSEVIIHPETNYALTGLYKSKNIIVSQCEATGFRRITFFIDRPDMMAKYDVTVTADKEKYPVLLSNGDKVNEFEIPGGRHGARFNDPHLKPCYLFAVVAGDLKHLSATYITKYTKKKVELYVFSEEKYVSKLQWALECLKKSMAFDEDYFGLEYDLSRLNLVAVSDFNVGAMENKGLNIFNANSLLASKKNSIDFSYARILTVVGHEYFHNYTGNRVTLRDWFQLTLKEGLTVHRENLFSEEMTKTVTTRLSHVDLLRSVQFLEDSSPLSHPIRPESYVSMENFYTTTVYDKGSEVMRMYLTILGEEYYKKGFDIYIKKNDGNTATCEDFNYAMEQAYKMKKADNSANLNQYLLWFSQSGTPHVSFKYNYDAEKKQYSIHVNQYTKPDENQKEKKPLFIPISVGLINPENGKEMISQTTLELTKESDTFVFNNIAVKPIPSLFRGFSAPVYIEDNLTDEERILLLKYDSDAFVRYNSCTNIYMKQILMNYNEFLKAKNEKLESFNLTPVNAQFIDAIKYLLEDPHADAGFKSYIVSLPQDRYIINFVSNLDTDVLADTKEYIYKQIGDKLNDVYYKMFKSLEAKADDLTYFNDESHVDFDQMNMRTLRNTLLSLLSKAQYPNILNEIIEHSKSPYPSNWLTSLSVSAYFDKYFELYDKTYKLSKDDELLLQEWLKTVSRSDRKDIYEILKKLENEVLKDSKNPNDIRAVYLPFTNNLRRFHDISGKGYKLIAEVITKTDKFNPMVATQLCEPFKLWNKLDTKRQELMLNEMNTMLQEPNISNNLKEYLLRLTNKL
measured property: IC50 (nM)

O=C(NO)C(Cc1ccccc1)C(=O)NC1Cc2ccccc2C1 (stereo not given): 1930
O=C(NO)C(Cc1ccccc1)C(=O)NCCCc1ccccc1 (stereo not given): 125
O=C(NO)/C(=C\c1ccccc1)C(=O)NCc1ccc(F)cc1: 6
CC(C)CC(C(=O)NO)C(=O)NCc1ccc(F)cc1 (stereo not given): 3900
CC(C)CC(C(=O)NO)C(=O)NCc1ccc(Cl)cc1 (stereo not given): 904

P. O=C(NO)/C(=C/c1ccccc1)C(=O)NCc1ccc(F)cc1
Q. CC(C)CC(C(=O)NO)C(=O)NCc1cccc2ccccc12 (stereo not given)
Identify the entry with the smaller IC50: P or Q . Label of pick, please. Q

a. CC(C)CC(C(=O)NO)C(=O)NCCCCc1ccccc1 (stereo not given)
b. Cc1ccccc1CNC(=O)C(Cc1ccccc1)C(=O)NO (stereo not given)
c. CC(C)CC(C(=O)NO)C(=O)NCCCc1ccccc1 (stereo not given)
d. CC(C)CC(C(=O)NO)C(=O)NC1CCCc2ccccc21 (stereo not given)
e. O=C(NO)C(Cc1ccccc1)C(=O)NCc1cccc(Oc2ccccc2)c1 (stereo not given)
Given 5 compounds, produce a descending ranking by IC50. Please, when replying, give the labels in the order that was requested. e, a, c, d, b
(e: 2510 nM, a: 1150 nM, c: 790 nM, d: 109 nM, b: 41 nM)
